Tested on: ACHN renal
Assay: NCI tumour cell line growth inhibition, 48 h
For each entry below, report its log10 of TGI value.
Hello, just confirming the data are log10 of TGI with units of µM.

Example compounds with recorded log10 of TGI:
compound	log10 of TGI
CC(=O)NC(CCCCN(Cc1ccccc1)C(=O)N(CCCl)N=O)C(=O)NCc1ccccc1 (stereo not given)	1.61
C/C=C(/C)C(=O)OC1C=C(CO)C(=O)C(OC(=O)C(C)(O)C(C)Cl)C1C(C)C (stereo not given)	0.31
O=C1C(Cl)=C(N2CCN(c3ccccn3)CC2)C(=O)c2ncccc21	0.74
COc1ccc(CNc2cnc3cc(N)cc(N)c3n2)cc1	1.51
CC(C)CCC(=O)[C@@H](C)[C@H]1[C@@H](OC2OCC(O)C(O)C2NS(C)(=O)=O)C[C@H]2[C@@H]3CC=C4C[C@@H](O)CC[C@]4(C)[C@H]3CC[C@]12C (stereo not given in full)	1.06

Now for a further compound.
ACHN renal data for O=c1[nH]c(=O)n(C/C=C/CBr)nc1Br ; its log10 of TGI: 1.41
